Source of measurements: paper PMC8597046

Consider the following molecules; for each one, report its concentration at 672 h.
Experiment: TK assay, intravenous mixture dosing: serum concentrations and noncompartmental analysis (sparse data)
Details: female, New Zealand white, rabbit, in vivo, iv, Serum concentration, rabbit 11, 672.00 h
API: value field is a number in nM; no unit string.

q: So what does the record say about concentration at 672 h for `Brc1ccc(Oc2ccc(Br)cc2Br)c(Br)c1` ?
a: 5.3

q: Could you tell me which concentration at 672 h is on file for `Cl[C@H]1[C@H](Cl)[C@@H](Cl)[C@H](Cl)[C@@H](Cl)[C@@H]1Cl` ?
a: 21

----------
Assay: TK assay, intravenous mixture dosing: serum concentrations and noncompartmental analysis (sparse data)
Conditions: female, New Zealand white, rabbit, in vivo, iv, Serum concentration, rabbit 4, 72.00 h
test_readout: concentration at 72 h (nM)
Report as a plain number; the unit nM is understood.

q: Could you share which concentration at 72 h value was measured for `O=C(O)C(F)(F)C(F)(F)C(F)(F)C(F)(F)C(F)(F)C(F)(F)C(F)(F)F` ?
a: 60

q: Need concentration at 72 h, item `Cl[C@H]1[C@H](Cl)[C@@H](Cl)[C@H](Cl)[C@@H](Cl)[C@@H]1Cl`
a: 36

q: For the compound shown here, `Brc1ccc(Oc2ccc(Br)cc2Br)c(Br)c1` , give the reported concentration at 72 h.
a: 56

----------
Assay: in vivo
Conditions: female, New Zealand white (INRA 1777 line), rabbit, in vivo, po
We label by threshold. Values of Vd/F strictly beneath 100 L/kg are YES. Values of 100 L/kg and up are NO.

q: Determine whether this compound shows Vd/F lower than 100 L/kg (ties excluded): `ClC(Cl)=C(c1ccc(Cl)cc1)c1ccc(Cl)cc1`
a: YES

q: Is the reported Vd/F for `O=C(O)C(F)(F)C(F)(F)C(F)(F)C(F)(F)C(F)(F)C(F)(F)C(F)(F)F` strictly below 100 L/kg?
a: YES

q: Bench note: check whether `Cl[C@H]1[C@H](Cl)[C@@H](Cl)[C@H](Cl)[C@@H](Cl)[C@@H]1Cl` shows Vd/F below 100 L/kg
a: YES

q: Determine if `Brc1ccc(Oc2ccc(Br)cc2Br)c(Br)c1` shows Vd/F strictly lower than 100 L/kg.
a: NO

q: For `Clc1c(Cl)c(Cl)c(Cl)c(Cl)c1Cl` , is the recorded Vd/F below the cut-off of 100 L/kg?
a: YES

----------
Test: Nonlinear mixed effect (NLME) compartmental modeling of merged IV and oral serum concentrations
Conditions: female, New Zealand white, rabbit, in vivo, iv
test_readout: AUC (µM·h)
Please respond with the number in µM·h and leave the unit unwritten.

q: What does the record list as AUC for O=C(O)C(F)(F)C(F)(F)C(F)(F)C(F)(F)C(F)(F)C(F)(F)C(F)(F)F [PFOA, perfluorooctanoic acid] ?
a: 26

q: Field request: AUC | item: Brc1ccc(Oc2ccc(Br)cc2Br)c(Br)c1 [BDE-47, 2,2′,4,4′-tetrabromodiphenyl ether]
a: 29

q: Consider the compound shown here: ClC(Cl)=C(c1ccc(Cl)cc1)c1ccc(Cl)cc1 [pp′DDE] What is its recorded AUC?
a: 17

q: If you can, please state the reported AUC value of Clc1c(Cl)c(Cl)c(Cl)c(Cl)c1Cl [HCB, hexachlorobenzene] .
a: 4.5

q: Item Cl[C@H]1[C@H](Cl)[C@@H](Cl)[C@H](Cl)[C@@H](Cl)[C@@H]1Cl [β-HCH, β-hexachlorocyclohexane] has what recorded AUC?
a: 20
